- System: MYB mRNA
- PROCEDURE_DETAILS: Gene panel canonical junction qPCR assay, decrease in CJ mRNA, Table 3
- Assay type: cell-based
- MEASUREMENT_PARAMETERS: decrease in canonical junction (CJ) mRNA, gene panel qPCR, Table 3
As shown below, each of these molecules has a reported IC50 value.

Use these answered entries as a reference point.
CCNC1CCN(c2ccc(C(=O)Nc3cc4cn(C)nc4cc3OC)c3[nH]ccc23)CC1: > 10000 nM
Cc1cn2cc(NC(=O)c3ccc(N4CCC(NC5CC5(C)C)CC4)c4cn(C)nc34)cc(F)c2n1 (centres unmarked): < 100 nM
CNCC1CCCN(c2ccc(C(=O)Nc3cn4cc(C)nc(C)c4n3)c3nn(C)cc23)C1 (centres unmarked): > 10000 nM
Cc1cn2cc(NC(=O)c3ccc(N4CC5(CNC5)C4)c4cn(C)nc34)nc2c(C)n1: 1000 to 10000 nM
CCNC1CCN(c2ccc(C(=O)Nc3cc(C)c(=O)n(C)c3)c3nn(C)cc23)CC1: 1000 to 10000 nM

Exercise: # input molecule: CCNC1CCN(c2ccc(C(=O)Nc3cc(C)c4nc(C)cn4n3)c3nn(C)cc23)CC1 ; wanted: its IC50
Key: 100 to 1000 nM

Exercise: # input molecule: COc1cn2nc(C)cc2cc1NC(=O)c1ccc(N2CCC(NC3CC3)CC2)c2cn(C)nc12 ; wanted: its IC50
Key: 100 to 1000 nM

Exercise: # input molecule: CCNC1CCN(c2ccc(C(=O)Nc3cc(F)c4nc(CO)cn4c3)c3nn(C)cc23)CC1 ; wanted: its IC50
Key: 100 to 1000 nM

###

As shown below, each of these compounds has a reported IC50 value.
- Test system: HTT mRNA
- PROCEDURE_DETAILS: Gene panel canonical junction qPCR assay, decrease in CJ mRNA, Table 3
- Type: cell-based
- MEASUREMENT_PARAMETERS: decrease in CJ mRNA levels, canonical junction qPCR, gene panel

Use these answered entries as a reference point.
Cc1cc2c(N3CCC(NC4CC4)CC3)ccc(C(=O)Nc3cc(CNS(C)(=O)=O)c4nn(C)cc4c3)n2n1 [Compound 822]: > 10000 nM
CCNC1CCN(c2ccc(C(=O)Nc3cc(CCC(=O)NC)c4nn(C)cc4c3)c3nn(C)cc23)CC1 [Compound 876]: 1000 to 10000 nM
CCNC1CCN(c2ccc(C(=O)Nc3cc(CNS(C)(=O)=O)c4nc(C)cn4c3)c3nn(C)cc23)CC1 [Compound 817]: > 10000 nM
COc1nc2c(C(=O)Nc3cc(F)c4nn(C)cc4c3)ccc(N3CCN[C@@H](C(C)C)C3)c2s1 [Compound 732]: > 10000 nM
CN(C)c1ccc(C(=O)Nc2cc(CNS(C)(=O)=O)c3nn(C)cc3c2)c2nn(C)cc12 [Compound 841]: > 10000 nM
COc1cc2c(N3CCC(NC4CC4)CC3)ccc(C(=O)Nc3cc(CO)c4nn(C)cc4c3)n2n1 [Compound 847]: 100 to 1000 nM

Exercise: # input compound: Cn1cc2cc(NC(=O)c3ccc(N4CCC(NC5CC5)CC4)c4cn(C)nc34)cc(CNc3cncs3)c2n1 [Compound 882] ; wanted: its IC50
Key: > 10000 nM

###

- Test system: MYB mRNA
- PROCEDURE_DETAILS: Splicing RT-qPCR assay, canonical (CJ) and alternative (AJ) junction mRNA, K562 cells
- Assay type: cell-based
- MEASUREMENT_PARAMETERS: Homo sapiens, K562.3 cells, 24 hours, read-out: MYB AJ (AC50, increase in AJ mRNA)
As shown below, each of these compounds has a reported AC50 value.

Use these answered entries as a reference point.
Cc1cn2nc(C(=O)Nc3ccc(N4C[C@@H](C)N[C@@H](C)C4)c4cc[nH]c34)cc(C)c2n1: 1000 to 10000 nM
CN[C@H]1CCN(c2ccc(C(=O)Nc3cc(F)c4nc(C)cn4c3)c3nn(C)nc23)C1: 100 to 1000 nM
CCN[C@@H]1CCN(c2cc(O)c(C(=O)Nc3cc(F)c4nc(C)cn4c3)c3nn(C)cc23)C1: < 100 nM

Exercise: # input compound: CNC1(C)CCN(c2ccc(C(=O)Nc3cn4cc(C)nc4c(OC)n3)c3nn(C)cc23)CC1 ; wanted: its AC50
Key: < 100 nM

Exercise: # input compound: Cc1cn2cc(NC(=O)c3ccc(N4CCC5NCCCC54)c4cn(C)nc34)cc(F)c2n1 (centres unmarked) ; wanted: its AC50
Key: 100 to 1000 nM

Exercise: # input compound: Cc1cn2cc(NC(=O)c3ccc(N4CCNCC4)c4cc[nH]c34)cc(F)c2n1 ; wanted: its AC50
Key: > 10000 nM

Exercise: # input compound: Cc1cn2cc(NC(=O)c3ccc(N4C[C@H](C)N[C@@H](C)C4)c4[nH]cnc34)cc(F)c2n1 ; wanted: its AC50
Key: 100 to 1000 nM

Exercise: # input compound: CCNC1CCN(c2ccc(C(=O)Nc3cc(F)c4nc(C)c(C)n4c3)c3nn(C)cc23)CC1 ; wanted: its AC50
Key: > 10000 nM

###

- Test system: MYB mRNA
- PROCEDURE_DETAILS: Gene panel canonical junction qPCR assay, decrease in CJ mRNA, Table 3
- Type: cell-based
- MEASUREMENT_PARAMETERS: decrease in canonical junction (CJ) mRNA, gene panel qPCR, Table 3
Where a name gives a salt, the structure may show the parent alone.
As shown below, each of these compounds has a reported IC50 value.

Exercise: # input compound: Cc1cn2cc(NC(=O)c3ccc(N4CCC5NCCC5C4)c4cn(C)nc34)nc2c(C)n1 (stereo not shown) ; wanted: its IC50
Key: 1 to 10 µM

Exercise: # input compound: CNC1CCN(c2ccc(C(=O)Nc3cn4cc(C)nc(C)c4n3)c3nn(C)cc23)C1 (stereo not shown) ; wanted: its IC50
Key: 0.1 to 1 µM

Exercise: # input compound: COc1c(NC(=O)c2c(F)cc(N3CCC(NC4CC4)CC3)c3cn(C)nc23)ccn2nc(C)cc12 [Compound 447, trifluoroacetate] ; wanted: its IC50
Key: 1 to 10 µM

Exercise: # input compound: CCNC1CCN(c2cc(F)c(C(=O)Nc3cn4cc(C)nc4c(F)c3OC)c3[nH]ncc23)CC1 ; wanted: its IC50
Key: < 0.1 µM

###

As shown below, each of these compounds has a reported pIC50 value.
- System: HTT mRNA
- PROCEDURE_DETAILS: Splicing RT-qPCR assay (THP), Table 2A
- Format: cell-based
- MEASUREMENT_PARAMETERS: Table 2A (THP), CJ mRNA decrease, read-out: HTT CJ (decrease in canonical junction mRNA, IC50)
pIC50: −log10 of the molar value.

Use these answered entries as a reference point.
CCNC1CCN(c2ccc(C(=O)Nc3cc(CC(N)=O)c4nc(C)cn4c3)c3nn(C)cc23)CC1: < 5.00
COc1cn2nc(C)cc2cc1NC(=O)c1c(F)cc(N2CCC(NC3CC3)CC2)c2cn(C)nc12: 6.00 to 7.00

Exercise: # input compound: CN[C@H]1CCN(c2ccc(C(=O)Nc3cc(F)c4nc(C)cn4c3)c3c2nnn3C)C1 ; wanted: its pIC50
Key: < 5.00

Exercise: # input compound: CCNC1CCN(c2ccc(C(=O)Nc3cn4cc(CF)nc(C)c4n3)c3nn(C)cc23)CC1 ; wanted: its pIC50
Key: < 5.00

Exercise: # input compound: CCNC1CCN(c2cc(O)c(C(=O)Nc3cn4cc(C)nc(C)c4n3)c3nn(C)cc23)CC1 [Compound 332, 2,2,2-trifluoroacetate] ; wanted: its pIC50
Key: < 5.00

Exercise: # input compound: CCNC1CCN(c2cc(F)c(C(=O)Nc3cc4c(C)nc(C)cn4n3)c3nn(C)cc23)CC1 ; wanted: its pIC50
Key: < 5.00

Exercise: # input compound: COc1cc2nn(C)cc2cc1NC(=O)c1c(O)cc(N2CCC(NC3CC3)CC2)c2cn(C)nc12 ; wanted: its pIC50
Key: 5.00 to 6.00

Exercise: # input compound: CCOc1cc2nc(C)cn2cc1NC(=O)c1c(F)cc(N2CCC(NC3CC3)CC2)c2cn(C)nc12 ; wanted: its pIC50
Key: 5.00 to 6.00

Exercise: # input compound: Cc1cn2cc(NC(=O)c3c(F)cc(N4CC[C@H](NCC56CC(CO5)C6)C4)c4cn(C)nc34)cc(F)c2n1 ; wanted: its pIC50
Key: < 5.00

Exercise: # input compound: COc1cc2nn(C)cc2cc1NC(=O)c1ccc(N2CCC(NCC3CC3)CC2)c2cn(C)nc12 ; wanted: its pIC50
Key: 5.00 to 6.00

Exercise: # input compound: Cc1cn2cc(NC(=O)c3ccc(N4CCC(NC5CC5)CC4)n4cc(C)nc34)cc(F)c2n1 ; wanted: its pIC50
Key: > 7.00

Exercise: # input compound: Cc1cn2cc(NC(=O)c3c(C4CC4)cc(N4CCC(NC5CC5)CC4)c4cn(C)nc34)nc2c(C)n1 ; wanted: its pIC50
Key: < 5.00

Exercise: # input compound: Cc1cn2cc(NC(=O)c3ccc(N4C[C@@H](C)N[C@@H](C)C4)c4[nH]c(C)nc34)cc(F)c2n1 ; wanted: its pIC50
Key: 5.00 to 6.00

Exercise: # input compound: COc1nc2nccn2cc1NC(=O)c1ccc(N2CCC(NC3CC3)CC2)c2cn(C)nc12 ; wanted: its pIC50
Key: < 5.00

Exercise: # input compound: CN[C@@H]1CCN(c2ccc(C(=O)Nc3cc(F)c4nc(C)cn4c3)c3nn(C)cc23)[C@H]1C ; wanted: its pIC50
Key: < 5.00
